Here, each record is paired with measured Selectivity data.
- target entity: recombinant BACE1 protein (Homo sapiens (Human))
- assay text: BACE1 biochemical FRET based assay
- condition description: BACE1 versus BACE2

structure notation	Selectivity
COc1cnc(C(=O)Nc2ccc(F)c([C@@]3(CF)N=C(N)O[C@@H]4CCOC[C@@H]43)c2)cn1	30.2
C[C@@H]1C[C@H]2OC(N)=N[C@](CF)(c3cc(NC(=O)c4cnc(OC(F)F)cn4)ccc3F)[C@H]2CO1	56.2
C[C@@H]1OCC[C@H]2OC(N)=N[C@](CF)(c3cc(NC(=O)c4cnc(OCF)cn4)ccc3F)[C@@H]12	31.6
CC[C@@H]1OCC[C@H]2OC(N)=N[C@](CF)(c3cc(NC(=O)c4cnc(OCF)cn4)ccc3F)[C@@H]12	44.7
NC1=N[C@](CF)(c2cc(NC(=O)c3ccc(C(F)(F)F)cn3)ccc2F)[C@H]2COCC[C@H]2O1	17.8
Cc1cc(C(F)(F)F)cnc1C(=O)Nc1ccc(F)c([C@@]2(CF)N=C(N)O[C@@H]3C[C@@H](C)OC[C@@H]32)c1	15.5
COc1cnc(C(=O)Nc2ccc(Cl)c([C@@]3(CF)N=C(N)O[C@@H]4C[C@@H](C)OC[C@@H]43)c2)cn1	24.5
NC1=N[C@](CF)(c2cc(NC(=O)c3cnc(OCC4(F)CC4)cn3)ccc2F)[C@H]2COCC[C@H]2O1	53.7
NC1=N[C@](CF)(c2cc(NC(=O)c3cnc(OCC(F)F)cn3)ccc2F)[C@H]2COCC[C@H]2O1	52.7
NC1=N[C@](CF)(c2cc(NC(=O)c3ccc(OC(F)F)cn3)ccc2F)[C@H]2COCC[C@H]2O1	25.1
NC1=N[C@](CF)(c2cc(NC(=O)c3cnc(-n4cncn4)cn3)ccc2F)[C@H]2COCC[C@H]2O1	69.2
Cc1cc(C(F)(F)F)cnc1C(=O)Nc1ccc(F)c([C@@]2(CF)N=C(N)O[C@@H]3CCOC[C@@H]32)c1	10.2
C[C@@H]1C[C@H]2OC(N)=N[C@](CF)(c3cc(NC(=O)c4cnc(OCF)cn4)cc(F)c3F)[C@H]2CO1	53.7
C[C@@H]1C[C@H]2OC(N)=N[C@](CF)(c3cc(NC(=O)c4ccc(C(F)(F)F)cn4)ccc3F)[C@H]2CO1	28.8

###

- assay text: Metabolic stability test
- Type: in vitro ADME
- condition description: human liver microsomes, 37° C., NADPH
measure name: Remaining rate(%) at 30 min

structure notation	measure name	quantity unit	value
NC1=N[C@](CF)(c2cc(NC(=O)c3cnc(-n4cncn4)cn3)ccc2F)[C@H]2COCC[C@H]2O1	Remaining rate(%) at 30 min	%	61.6
NC1=N[C@](CF)(c2cc(NC(=O)c3ccc(C(F)(F)F)cn3)ccc2F)[C@H]2COCC[C@H]2O1	Remaining rate(%) at 30 min	%	87.9
NC1=N[C@](CF)(c2cc(NC(=O)c3cnc(OCF)cn3)ccc2F)[C@H]2COCC[C@H]2O1	Remaining rate(%) at 30 min	%	107
NC1=N[C@](CF)(c2cc(NC(=O)c3cnc(OC(F)F)cn3)ccc2F)[C@H]2COCC[C@H]2O1	Remaining rate(%) at 30 min	%	91.7
COc1cnc(C(=O)Nc2ccc(F)c([C@@]3(CF)N=C(N)O[C@@H]4CCOC[C@@H]43)c2)cn1	Remaining rate(%) at 30 min	%	91.4
C[C@@H]1C[C@H]2OC(N)=N[C@](CF)(c3cc(NC(=O)c4cnc(OCF)cn4)ccc3Cl)[C@H]2CO1	Remaining rate(%) at 30 min	%	79.6
C[C@@H]1C[C@H]2OC(N)=N[C@](CF)(c3cc(NC(=O)c4cnc(OCF)cn4)ccc3F)[C@H]2CO1	Remaining rate(%) at 30 min	%	94.4

###

- target entity: recombinant BACE1 protein (Homo sapiens (Human), UniProt P56817)
- Sequence (P56817 46-501): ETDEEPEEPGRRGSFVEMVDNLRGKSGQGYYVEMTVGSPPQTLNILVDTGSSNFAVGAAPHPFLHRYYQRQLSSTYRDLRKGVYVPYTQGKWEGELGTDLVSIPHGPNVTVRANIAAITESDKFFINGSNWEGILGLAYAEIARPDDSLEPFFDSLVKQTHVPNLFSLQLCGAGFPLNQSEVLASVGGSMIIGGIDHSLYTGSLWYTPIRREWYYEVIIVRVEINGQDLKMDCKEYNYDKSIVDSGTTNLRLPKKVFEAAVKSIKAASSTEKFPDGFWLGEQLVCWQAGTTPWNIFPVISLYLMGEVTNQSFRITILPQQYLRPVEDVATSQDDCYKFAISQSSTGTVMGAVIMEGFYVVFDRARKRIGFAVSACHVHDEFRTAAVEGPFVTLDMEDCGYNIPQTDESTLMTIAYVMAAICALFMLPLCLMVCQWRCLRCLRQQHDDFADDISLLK
- assay text: BACE1 biochemical FRET based assay
- condition description: FRET, pH 5.0
pIC50: −log10 of the molar value.
measure name: pIC50

molecule	value
NC1=N[C@](CF)(c2cc(NC(=O)c3cnc(OCF)cn3)ccc2F)[C@H]2COCC[C@H]2O1	8.13
NC1=N[C@](CF)(c2cc(NC(=O)c3cnc(-n4cncn4)cn3)ccc2F)[C@H]2COCC[C@H]2O1	7.77
C[C@@H]1C[C@H]2OC(N)=N[C@](CF)(c3cc(NC(=O)c4cnc(C(F)F)cn4)ccc3F)[C@H]2CO1	7.26
C[C@@H]1C[C@H]2OC(N)=N[C@](CF)(c3cc(NC(=O)c4cnc(OCF)cn4)cc(F)c3F)[C@H]2CO1	7.76
NC1=N[C@](CF)(c2cc(NC(=O)c3cnc(OCF)cn3)ccc2F)[C@H]2[C@H](CF)OCC[C@H]2O1	7.97
NC1=N[C@](CF)(c2cc(NC(=O)c3cnc(C(F)(F)F)cn3)ccc2F)[C@H]2COCC[C@H]2O1 [Compound I-102]	7.47
CC[C@@H]1OCC[C@H]2OC(N)=N[C@](CF)(c3cc(NC(=O)c4cnc(OCF)cn4)ccc3F)[C@@H]12	7.81

###

- target entity: P-gp (MDR1 expressing LLC-PK1 cells) (Homo sapiens (Human), UniProt P08183)
- Sequence (P08183 whole entry): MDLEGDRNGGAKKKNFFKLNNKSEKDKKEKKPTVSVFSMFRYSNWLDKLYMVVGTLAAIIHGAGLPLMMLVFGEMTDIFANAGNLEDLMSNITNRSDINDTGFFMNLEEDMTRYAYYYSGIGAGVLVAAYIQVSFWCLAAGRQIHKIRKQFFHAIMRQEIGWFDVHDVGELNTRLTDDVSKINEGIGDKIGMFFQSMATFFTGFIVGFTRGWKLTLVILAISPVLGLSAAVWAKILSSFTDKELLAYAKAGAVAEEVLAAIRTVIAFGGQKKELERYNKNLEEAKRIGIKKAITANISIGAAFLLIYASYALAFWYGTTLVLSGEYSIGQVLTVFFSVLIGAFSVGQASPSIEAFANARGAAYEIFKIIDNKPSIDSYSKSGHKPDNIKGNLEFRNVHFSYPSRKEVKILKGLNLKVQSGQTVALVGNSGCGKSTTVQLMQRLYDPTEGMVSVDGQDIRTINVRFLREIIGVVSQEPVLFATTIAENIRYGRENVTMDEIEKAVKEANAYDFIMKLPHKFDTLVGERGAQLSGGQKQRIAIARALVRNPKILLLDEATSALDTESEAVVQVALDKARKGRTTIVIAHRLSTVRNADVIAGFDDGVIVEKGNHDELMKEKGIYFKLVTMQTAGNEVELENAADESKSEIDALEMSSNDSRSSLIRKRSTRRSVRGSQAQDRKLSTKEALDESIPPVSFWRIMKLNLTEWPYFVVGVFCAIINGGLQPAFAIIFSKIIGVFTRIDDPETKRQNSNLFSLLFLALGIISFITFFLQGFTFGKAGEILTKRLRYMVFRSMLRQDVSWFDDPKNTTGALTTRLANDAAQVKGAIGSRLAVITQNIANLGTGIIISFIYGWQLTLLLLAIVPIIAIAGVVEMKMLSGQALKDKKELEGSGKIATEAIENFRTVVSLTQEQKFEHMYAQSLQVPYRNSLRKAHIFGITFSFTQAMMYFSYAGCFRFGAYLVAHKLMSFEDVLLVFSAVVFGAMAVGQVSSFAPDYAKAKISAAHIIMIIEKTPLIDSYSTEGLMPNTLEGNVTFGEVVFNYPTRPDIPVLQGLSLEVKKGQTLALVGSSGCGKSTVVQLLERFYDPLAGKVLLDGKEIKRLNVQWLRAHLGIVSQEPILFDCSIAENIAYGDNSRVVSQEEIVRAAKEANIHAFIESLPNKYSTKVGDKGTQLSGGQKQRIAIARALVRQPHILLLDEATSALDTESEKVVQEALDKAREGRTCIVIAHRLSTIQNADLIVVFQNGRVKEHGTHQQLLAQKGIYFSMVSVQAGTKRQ
- assay text: P-gp substrate test
- Assay type: in vitro ADME
- condition description: MDR1/LLC-PK1 versus LLC-PK1
Please note: P-gp ER ratio exactly at 6 is label 0. Only values below 6 get label 1.

structure notation	assigned label
NC1=N[C@](CF)(c2cc(NC(=O)c3cnc(OC(F)F)cn3)ccc2F)[C@H]2COCC[C@H]2O1	label 0
NC1=N[C@](CF)(c2cc(NC(=O)c3cnc(OCF)cn3)ccc2F)[C@H]2COCC[C@H]2O1	label 1
C[C@@H]1C[C@H]2OC(N)=N[C@](CF)(c3cc(NC(=O)c4cnc(OCF)cn4)ccc3Cl)[C@H]2CO1	label 1
NC1=N[C@](CF)(c2cc(NC(=O)c3ccc(C(F)(F)F)cn3)ccc2F)[C@H]2COCC[C@H]2O1	label 0
C[C@@H]1C[C@H]2OC(N)=N[C@](CF)(c3cc(NC(=O)c4cnc(OCF)cn4)ccc3F)[C@H]2CO1	label 0
NC1=N[C@](CF)(c2cc(NC(=O)c3cnc(-n4cncn4)cn3)ccc2F)[C@H]2COCC[C@H]2O1	label 1

###

- target entity: recombinant BACE1 protein (Homo sapiens (Human))
- assay text: BACE1 biochemical FRET based assay
- condition description: FRET, pH 5.0

molecule	IC50 (nM)
CC[C@@H]1OCC[C@H]2OC(N)=N[C@](CF)(c3cc(NC(=O)c4cnc(OC(F)F)cn4)ccc3F)[C@@H]12 [Compound I-094]	5.9
NC1=N[C@](CF)(c2cc(NC(=O)c3cnc(OCC4(F)CC4)cn3)ccc2F)[C@H]2COCC[C@H]2O1 [Compound I-086]	10
NC1=N[C@](CF)(c2cc(NC(=O)c3ccc(C(F)(F)F)cn3)ccc2F)[C@H]2COCC[C@H]2O1 [Compound I-105]	17
NC1=N[C@](CF)(c2cc(NC(=O)c3cnc(OCC(F)(F)F)cn3)ccc2F)[C@H]2COCC[C@H]2O1 [Compound I-077]	8.1

###

Here, each record is paired with measured pIC50 data.
- target entity: recombinant BACE2 protein (Homo sapiens (Human), UniProt Q9Y5Z0)
- Sequence (Q9Y5Z0 63-518): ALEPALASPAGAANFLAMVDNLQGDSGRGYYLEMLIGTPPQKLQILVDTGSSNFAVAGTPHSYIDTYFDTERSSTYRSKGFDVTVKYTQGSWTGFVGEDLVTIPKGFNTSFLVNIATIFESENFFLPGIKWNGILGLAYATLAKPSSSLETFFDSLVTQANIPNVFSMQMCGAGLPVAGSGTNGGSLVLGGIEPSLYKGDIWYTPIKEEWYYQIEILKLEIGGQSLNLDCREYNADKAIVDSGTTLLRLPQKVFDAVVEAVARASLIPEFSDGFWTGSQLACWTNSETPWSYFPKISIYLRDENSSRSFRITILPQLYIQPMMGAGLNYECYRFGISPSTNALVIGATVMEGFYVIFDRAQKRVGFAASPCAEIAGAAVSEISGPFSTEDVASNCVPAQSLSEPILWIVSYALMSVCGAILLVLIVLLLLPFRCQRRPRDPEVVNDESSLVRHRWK
- assay text: BACE2 biochemical FRET based assay
- condition description: pH 5.0
pIC50: −log10 of the molar value.
measure name: pIC50

structure notation	value
COc1cnc(C(=O)Nc2ccc(F)c([C@@]3(CF)N=C(N)O[C@@H]4C[C@@H](C)OC[C@@H]43)c2)cn1	5.84
C[C@@H]1OCC[C@H]2OC(N)=N[C@](CF)(c3cc(NC(=O)c4cnc(OCF)cn4)ccc3F)[C@@H]12	6.38
NC1=N[C@](CF)(c2cc(NC(=O)c3cnc(-n4cncn4)cn3)ccc2F)[C@H]2COCC[C@H]2O1	5.93
COc1cnc(C(=O)Nc2ccc(Cl)c([C@@]3(CF)N=C(N)O[C@@H]4C[C@@H](C)OC[C@@H]43)c2)cn1	6.56
NC1=N[C@](CF)(c2cc(NC(=O)c3cnc(OCF)cn3)ccc2F)[C@H]2[C@H](CF)OCC[C@H]2O1	6.34
C[C@@H]1C[C@H]2OC(N)=N[C@](CF)(c3cc(NC(=O)c4cnc(OCF)cn4)ccc3F)[C@H]2CO1	6.19
C[C@H]1COC[C@H]2[C@@H]1OC(N)=N[C@]2(CF)c1cc(NC(=O)c2cnc(OCF)cn2)ccc1F	6.81

###

- target entity: recombinant BACE1 protein (Homo sapiens (Human))
- assay text: BACE1 biochemical FRET based assay
- condition description: BACE1 versus BACE2
measure name: Selectivity

compound	measure name	value
CCOc1cnc(C(=O)Nc2ccc(F)c([C@@]3(CF)N=C(N)O[C@@H]4CCOC[C@@H]43)c2)cn1	Selectivity	18.6
C[C@@H]1C[C@H]2OC(N)=N[C@](CF)(c3cc(NC(=O)c4cnc(OCF)cn4)ccc3Cl)[C@H]2CO1	Selectivity	35.5
C[C@H]1COC[C@H]2[C@@H]1OC(N)=N[C@]2(CF)c1cc(NC(=O)c2cnc(OCF)cn2)ccc1F	Selectivity	36.3
NC1=N[C@](CF)(c2cc(NC(=O)c3cnc(OC(F)F)cn3)ccc2F)[C@H]2COCC[C@H]2O1	Selectivity	63.1
NC1=N[C@](CF)(c2cc(NC(=O)c3cnc(OCC(F)(F)F)cn3)ccc2F)[C@H]2COCC[C@H]2O1	Selectivity	223
CC[C@@H]1OCC[C@H]2OC(N)=N[C@](CF)(c3cc(NC(=O)c4cnc(OC(F)F)cn4)ccc3F)[C@@H]12	Selectivity	70.8
NC1=N[C@](CF)(c2cc(NC(=O)c3cnc(C(F)(F)F)cn3)ccc2F)[C@H]2COCC[C@H]2O1 [Compound I-102]	Selectivity	28.8
